molecular target: alpha-synuclein (natural human wildtype alpha-synuclein) (human, UniProt P37840 1-140); assay: Biacore (SPR) full kinetic analysis
PROPERTY_MEASURED: kon (M⁻¹ s⁻¹)
Response body: numeric value in M⁻¹ s⁻¹, unit text excluded.

Form field kon, entry Murine 1H7 (antibody, mouse IgG1, V domains shown, Mouse IgG1; also called m1H7; mouse 1H7) VH: VQLQQSGPELVKPGTSVKISCKASGYSFTSYYIHWVKQSPGQGLEWIGWIYPGSGNTKYSEKFKGKATLTADTSSSTAYMQLSSLTSEDSAVYFCARDGCYGFAYWGQGTLVTVS VL: DIVLTQSPASLAVSLGQRATISCKASQSVDYDGDSYMNWYQQKPGQPPKFLICAASNLESGIPARFSGSGSGTDFTLNIHPVEEEDAATYYCQQSNEDPFTFGSGTKLEIK : 1e+06
